Source listed as patent US10913728B2.

EXPERIMENT_NOTES: Nitroxyl production via N2O quantification in the headspace (GC), relative to Angeli's salt standard
Assay type: physicochemical
MEASUREMENT_PARAMETERS: 100 μM compound; N2O yield relative to AS standard; phosphate buffer with DTPA, 37° C.
Description: Nitrous oxide (N2O) is produced via the dimerization and dehydration of HNO, and is the most common marker for nitroxyl production (Fukuto et al., Chem. Res. Toxicol. 18:790-801 (2005)). […] Another procedure for determining N2O released from compounds of the disclosure is as follows. […] Samples were prepared in 6 mL Wheaton Clr headspace vials with volumes pre-measured for sample uniformity (actual vial volume ranges from 5.8-6.3 mL). […]
ATTRIBUTE_MEASURED: % HNO (%)
Expressed in %, but write only the number.

COMPOUND	% HNO, %
CO/N=C(\C)C1(ONC(C)=O)C(=O)N(c2ccccc2)N=C1C (centres unmarked)	75
CO/N=C(\C)C1(ONC(=O)OC)C(=O)N(C)N=C1C (centres unmarked)	17
CO/N=C(\C)C1(ONC(=O)OC(C)(C)C)C(=O)N(c2ccccc2)N=C1C (centres unmarked)	26

Kindly consider the entry below.
Problem: May I ask what % HNO has been recorded for CO/N=C(\C)C1(ONC(=O)OC)C(=O)N(c2ccccc2)N=C1C (centres unmarked) ?
Result: 29

====

EXPERIMENT_NOTES: UV-Vis protocol: decomposition kinetics, donor half-lives at pH 7.4 and 37° C.
Assay type: physicochemical
MEASUREMENT_PARAMETERS: buffer; pH 7.4, 37° C., UV-Vis spectroscopy
ATTRIBUTE_MEASURED: half-life (min)
Expressed in min, but write only the number.

MOLECULE	SCALE_UNIT	MEAS_VALUE
CO/N=C(\C)C1(ONC(=O)OC)C(=O)N(C)N=C1C (centres unmarked)	min	1.2

Alright, here's another molecule for you.
Problem: I have this molecule here, CO/N=C(\C)C1(ONC(C)=O)C(=O)N(c2ccccc2)N=C1C (centres unmarked) , and I need its recorded half-life.
Result: 25

====

EXPERIMENT_NOTES: UV-Vis protocol: decomposition kinetics, donor half-lives at pH 7.4 and 37° C.
Assay type: physicochemical
MEASUREMENT_PARAMETERS: buffer; pH 7.4, 37° C.
ATTRIBUTE_MEASURED: half-life (s)
Unit s implied. Number only.

Problem: Look at this compound and give its reported half-life. CO/N=C(\C)C1(ONC(=O)OC)C(=O)N(c2ccccc2)N=C1C (stereo not shown) [Compound 3]
Result: 36
